Sourced from patent US20230203029A1

Molecular target: Ba/F3 Pro B-cell line expressing TEL-human MERTK fusion domain (Homo sapiens)
Assay type: cell-based
Settings: read-out: TEL-MERTK Ba/F3 IC50; cell survival, 48 h, CellTiter-Glo
RECORDED_METRIC: pIC50
In textbook form, pIC50 equals minus log to base ten of the concentration in mol/L.

INSERT INTO results (molecule, study_system, result) VALUES
  ('CC(C)n1cc(C(=O)Nc2ccc(Oc3ccnc4cnc(N5CCN(C6COC6)CC5)cc34)cn2)c(=O)n(-c2ccc(F)cc2)c1=O [Example 20.1]', 'Ba/F3 Pro B-cell line expressing TEL-human MERTK fusion domain (Homo sapiens)', 7.57),
  ('CC(C)C(=O)N1CCC(c2cc3c(Oc4ccc(NC(=O)c5cccn(-c6ccc(F)cc6)c5=O)nc4)ccnc3cn2)CC1 [Example 22]', 'Ba/F3 Pro B-cell line expressing TEL-human MERTK fusion domain (Homo sapiens)', 8.00),
  ('CN1CCC(Oc2cc3c(Oc4ccc(NC(=O)c5cccn(-c6ccc(F)cc6)c5=O)nc4)ccnc3cn2)CC1 [Example 24]', 'Ba/F3 Pro B-cell line expressing TEL-human MERTK fusion domain (Homo sapiens)', 8.22);

Please fill in: pIC50 reported for Cc1cc(NC(=O)c2cccn(-c3ccccc3)c2=O)ccc1Oc1ccnc2cnc(N3CCNCC3)cc12 [Example 30] = 6.33

* * *

Target: Ba/F3 Pro B-cell line expressing TEL-human MERTK fusion domain (Homo sapiens)
Type: cell-based
Details: cell survival, 48 h, CellTiter-Glo; read-out: TEL-MERTK Ba/F3 IC50
RECORDED_METRIC: pIC50
In textbook form, pIC50 equals minus log to base ten of the concentration in mol/L.

INSERT INTO assay_data (compound, result) VALUES
  ('C[C@H](CO)n1cc(C(=O)Nc2ccc(Oc3ccnc4cnc(C(=O)NC5CCN(C)CC5)cc34)cc2)c(=O)n(-c2ccc(F)cc2)c1=O [Example 14]', 7.10);

Entry CN1CCC(NC(=O)c2cc3c(Oc4ccc(NC(=O)c5cn(C)cc(-c6ccc(F)cc6)c5=O)cc4)ccnc3cn2)CC1 [Example 37] under Ba/F3 Pro B-cell line expressing TEL-human MERTK fusion domain (Homo sapiens) had pIC50 of 7.30

Entry O=C(Nc1ccc(Oc2ccnc3cnc(N4CCNCC4)cc23)cn1)c1cccn(-c2ccc(F)cc2)c1=O [Example 10] under Ba/F3 Pro B-cell line expressing TEL-human MERTK fusion domain (Homo sapiens) had pIC50 of 7.62

Entry Cc1cc(NC(=O)c2cccn(-c3ccccc3)c2=O)ccc1Oc1ccnc2cnc(C(=O)NC3CCN(C)CC3)cc12 [Example 34] under Ba/F3 Pro B-cell line expressing TEL-human MERTK fusion domain (Homo sapiens) had pIC50 of 6.84

* * *

Biological target: human AXL cytoplasmic domain (Homo sapiens, UniProt P30530)
Construct: human AXL cytoplasmic domain (Thermo Fisher A31515); purchased Thermo Fisher A31515
Sequence (P30530 473-894 limits assumed): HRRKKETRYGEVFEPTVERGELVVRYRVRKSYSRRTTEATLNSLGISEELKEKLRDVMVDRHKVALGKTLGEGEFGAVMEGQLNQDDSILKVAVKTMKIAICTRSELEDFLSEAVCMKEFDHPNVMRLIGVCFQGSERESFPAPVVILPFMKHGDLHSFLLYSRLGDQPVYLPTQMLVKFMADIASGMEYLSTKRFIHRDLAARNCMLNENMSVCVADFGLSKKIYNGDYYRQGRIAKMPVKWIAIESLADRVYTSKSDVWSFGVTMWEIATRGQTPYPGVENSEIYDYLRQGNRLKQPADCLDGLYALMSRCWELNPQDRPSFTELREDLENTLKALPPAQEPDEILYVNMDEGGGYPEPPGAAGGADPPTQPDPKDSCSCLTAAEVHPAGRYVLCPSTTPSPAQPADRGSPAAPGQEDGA
Assay: Assay 1b AXL HTRF KinEASE-TK assay
Assay type: biochemical
The following compounds are listed with their measured pIC50 values.
In textbook form, pIC50 equals minus log to base ten of the concentration in mol/L.

INSERT INTO assay_data (smiles, result) VALUES
  ('CC(C)n1cc(C(=O)Nc2ccc(Oc3ccnc4cnc(C(=O)NC5CCN(C)CC5)cc34)cc2)c(=O)c(-c2ccc(F)cc2)c1', 8.30),
  ('CN1CCC(NC(=O)c2cc3c(Oc4ccc(NC(=O)c5cn(C6CC6)c(=O)n(-c6ccc(F)cc6)c5=O)cc4)ccnc3cn2)CC1', 8.00),
  ('O=C(Nc1ccc(Oc2ccnc3cnc(C4=CCN(C5COC5)CC4)cc23)cn1)c1cccn(-c2ccc(F)cc2)c1=O', 7.74),
  ('Cc1cc(NC(=O)c2cccn(-c3ccccc3)c2=O)ccc1Oc1ccnc2cnc(N3CCNCC3)cc12', 6.06),
  ('CC(C)n1cc(C(=O)Nc2ccc(Oc3ccnc4cnc(N5CCNCC5)cc34)cc2)c(=O)c(-c2ccc(F)cc2)c1', 8.22),
  ('O=C(Nc1ccc(Oc2ccnc3cnc(N4CCNCC4)cc23)cc1)c1cccn(-c2ccc(F)cc2)c1=O', 7.80);

Proceed to the following item.
Please fill in: pIC50 reported for CN1CCC(NC(=O)c2cc3c(Oc4ccc(NC(=O)c5cn(C)cc(-c6ccc(F)cc6)c5=O)cc4)ccnc3cn2)CC1 = 8.15

* * *

The following compounds are listed with their measured pIC50 values.
Target: Ba/F3 Pro B-cell line expressing TEL-human Tyro3 fusion domain (Homo sapiens, UniProt Q06418)
Sequence (Q06418 518-790 limits assumed): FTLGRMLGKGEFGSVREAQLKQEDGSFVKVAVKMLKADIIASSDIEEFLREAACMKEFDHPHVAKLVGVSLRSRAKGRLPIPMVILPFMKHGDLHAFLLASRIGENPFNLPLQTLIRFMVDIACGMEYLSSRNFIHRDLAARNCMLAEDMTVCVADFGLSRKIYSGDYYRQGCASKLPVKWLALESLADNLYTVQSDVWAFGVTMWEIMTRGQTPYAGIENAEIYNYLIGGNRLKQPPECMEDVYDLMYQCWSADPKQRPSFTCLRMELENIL
Conditions: cell survival, 48 h, CellTiter-Glo
In textbook form, pIC50 equals minus log to base ten of the concentration in mol/L.

Use these answered entries as a reference point.
INSERT INTO results (compound, result) VALUES
  ('O=C(Nc1ccc(Oc2ccnc3cnc(N4CCN(C5COC5)CC4)cc23)cn1)c1ccnn(-c2ccc(F)cc2)c1=O', 6.57),
  ('CC(C)n1cc(C(=O)Nc2ccc(Oc3ccnc4cnc(C(=O)NC5CCN(C)CC5)cc34)cc2)c(=O)c(-c2ccc(F)cc2)c1', 7.37),
  ('CC(C)(C)OC(=O)N1CCC(c2cc3c(Oc4ccc(NC(=O)c5cccn(-c6ccc(F)cc6)c5=O)nc4)ccnc3cn2)C1 (centres unmarked)', 5.71),
  ('CC(C)n1cc(C(=O)Nc2ccc(Oc3ccnc4cnc(C(=O)N[C@H]5CCN(C)C5)cc34)cn2)c(=O)n(-c2ccc(F)cc2)c1=O', 6.42),
  ('CN1CCC(NC(=O)c2cc3c(Oc4ccc(NC(=O)c5cccn(-c6ccc(F)cc6)c5=O)nc4)ccnc3cn2)CC1', 6.60);

Please fill in: pIC50 reported for CN1CCN(c2cc3c(Oc4ccc(NC(=O)c5cccn(-c6ccc(F)cc6)c5=O)nc4)ccnc3cn2)CC1 = 6.92

Please fill in: pIC50 reported for O=C(Nc1ccc(Oc2ccnc3cnc(C4CCNC4)cc23)cn1)c1cccn(-c2ccc(F)cc2)c1=O (centres unmarked) = 5.62

Please fill in: pIC50 reported for CN1CCC(NC(=O)c2cc3c(Oc4ccc(NC(=O)c5cccn(-c6ccccc6)c5=O)cc4F)ccnc3cn2)CC1 = 6.81

Please fill in: pIC50 reported for O=C(Nc1ccc(Oc2ccnc3cnc(C4CCN(C5COC5)CC4)cc23)cn1)c1cccn(-c2ccc(F)cc2)c1=O = 6.57

Please fill in: pIC50 reported for CC(C)n1cc(C(=O)Nc2ccc(Oc3ccnc4cnc(N5CCN(C6COC6)CC5)cc34)cn2)c(=O)c(-c2ccc(F)cc2)c1 = 6.66

Please fill in: pIC50 reported for CC(C)n1cc(C(=O)Nc2ccc(Oc3ccnc4cnc(C(=O)NC5CC6CCC(C5)N6C)cc34)cn2)c(=O)n(-c2ccc(F)cc2)c1=O (centres unmarked) = 6.42

Please fill in: pIC50 reported for CN1CCN(c2cc3c(Oc4ccc(NC(=O)c5cccn(-c6ccc(F)cc6)c5=O)cc4)ccnc3cn2)CC1 = 6.94

Please fill in: pIC50 reported for O=C(Nc1ccc(Oc2ccnc3cnc(C4=CCN(C5COC5)CC4)cc23)cn1)c1cccn(-c2ccc(F)cc2)c1=O = 6.84

Please fill in: pIC50 reported for Cc1nc(NC(=O)c2cccn(-c3ccc(F)cc3)c2=O)ccc1Oc1ccnc2cnc(C(=O)NC3CCN(C)CC3)cc12 = 5.85

* * *

Biological target: recombinant human MERTK expressed in live cells (HEK 293, MERTK-Nanoluc fusion vector) (Homo sapiens, UniProt Q12866)
Construct: host or cells: HEK 293
Sequence (Q12866 21-999): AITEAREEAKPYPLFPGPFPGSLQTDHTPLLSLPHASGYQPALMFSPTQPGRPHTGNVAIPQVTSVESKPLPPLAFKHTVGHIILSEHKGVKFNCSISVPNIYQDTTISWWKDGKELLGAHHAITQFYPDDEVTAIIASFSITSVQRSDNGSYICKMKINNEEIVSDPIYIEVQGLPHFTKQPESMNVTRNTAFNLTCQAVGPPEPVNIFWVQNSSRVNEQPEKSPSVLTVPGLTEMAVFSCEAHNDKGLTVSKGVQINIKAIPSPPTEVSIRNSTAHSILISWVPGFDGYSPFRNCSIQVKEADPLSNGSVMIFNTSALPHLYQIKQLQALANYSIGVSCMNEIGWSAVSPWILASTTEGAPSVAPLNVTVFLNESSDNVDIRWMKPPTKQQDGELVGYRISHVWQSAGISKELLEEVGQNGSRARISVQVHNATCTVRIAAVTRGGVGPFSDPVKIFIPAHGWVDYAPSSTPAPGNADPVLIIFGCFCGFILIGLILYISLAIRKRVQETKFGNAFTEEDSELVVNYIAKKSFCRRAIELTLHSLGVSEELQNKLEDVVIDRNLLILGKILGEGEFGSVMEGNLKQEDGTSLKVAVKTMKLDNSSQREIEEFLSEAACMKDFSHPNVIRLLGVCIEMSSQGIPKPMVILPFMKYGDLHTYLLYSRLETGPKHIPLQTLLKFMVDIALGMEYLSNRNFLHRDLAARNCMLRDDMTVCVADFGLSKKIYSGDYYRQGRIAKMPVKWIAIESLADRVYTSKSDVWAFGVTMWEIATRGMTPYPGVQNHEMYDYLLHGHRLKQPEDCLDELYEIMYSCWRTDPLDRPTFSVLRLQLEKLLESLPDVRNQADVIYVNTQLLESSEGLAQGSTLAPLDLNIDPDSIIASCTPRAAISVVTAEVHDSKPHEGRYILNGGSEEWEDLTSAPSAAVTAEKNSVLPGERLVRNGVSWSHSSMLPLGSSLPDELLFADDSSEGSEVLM
Experiment: Assay 2 MERTK cellular target engagement (NanoBRET TE) assay
Type: cell-based
Details: HEK 293 cells, tracer K9, 2 h at 37° C.; read-out: Assay 2 Cell TE MER IC50
RECORDED_METRIC: IC50 (nM)
The response must be a number in nM with no trailing unit.

INSERT INTO measurements (smiles, recorded_metric, result_units, result) VALUES
  ('CC(C)n1cc(C(=O)Nc2ccc(Oc3ccnc4cnc(C(=O)NC5CCN(C)CC5)cc34)cc2)c(=O)c(-c2ccc(F)cc2)c1', 'IC50', 'nM', 8.3),
  ('CC(C)n1cc(C(=O)Nc2ccc(Oc3ccnc4cnc(C(=O)NC5CCN(C)CC5)cc34)cn2)c(=O)n(-c2ccc(F)cc2)c1=O', 'IC50', 'nM', 30.5),
  ('O=C(Nc1ccc(Oc2ccnc3cnc(N4CCNCC4)cc23)cc1)c1cccn(-c2ccccc2)c1=O', 'IC50', 'nM', 80.4),
  ('CC(C)n1cc(C(=O)Nc2ccc(Oc3ccnc4cnc(N5CCNCC5)cc34)cc2)c(=O)n(-c2ccccn2)c1=O', 'IC50', 'nM', 244),
  ('O=C(Nc1ccc(Nc2ccnc3cnc(N4CCC(O)CC4)cc23)cc1)c1cccn(-c2ccccc2)c1=O', 'IC50', 'nM', 46.6),
  ('O=C(Nc1ccc(Nc2ccnc3cnc(N4CCOCC4)cc23)cc1)c1cccn(-c2ccccc2)c1=O', 'IC50', 'nM', 163);

Proceed to the following item.
Please fill in: IC50 reported for C[C@H](CO)n1cc(C(=O)Nc2ccc(Oc3ccnc4cnc(C(=O)NC5CCN(C)CC5)cc34)cc2)c(=O)n(-c2ccc(F)cc2)c1=O = 75.9
